For ALDH2 (Homo sapiens, UniProt P05091), measured pIC50 is reported for the entries below.
pIC50: −log10 of the molar value.

> print(dat)
                                   molecule  endpoint  measured
1  CC(=O)Nc1ccc(S(=O)(=O)n2cnc3ccccc32)cc1 [A16]     pIC50    < 4.00
2  COc1cc(F)ccc1S(=O)(=O)n1cnc2ccccc21 [A39]     pIC50    < 4.00

With ALDH2 (Homo sapiens, UniProt P05091) as the test system, provide measured pIC50 for this molecule: CC(C)Cc1ccc(S(=O)(=O)n2cnc3ccccc32)cc1 [A67]
Sequence (P05091 18-517): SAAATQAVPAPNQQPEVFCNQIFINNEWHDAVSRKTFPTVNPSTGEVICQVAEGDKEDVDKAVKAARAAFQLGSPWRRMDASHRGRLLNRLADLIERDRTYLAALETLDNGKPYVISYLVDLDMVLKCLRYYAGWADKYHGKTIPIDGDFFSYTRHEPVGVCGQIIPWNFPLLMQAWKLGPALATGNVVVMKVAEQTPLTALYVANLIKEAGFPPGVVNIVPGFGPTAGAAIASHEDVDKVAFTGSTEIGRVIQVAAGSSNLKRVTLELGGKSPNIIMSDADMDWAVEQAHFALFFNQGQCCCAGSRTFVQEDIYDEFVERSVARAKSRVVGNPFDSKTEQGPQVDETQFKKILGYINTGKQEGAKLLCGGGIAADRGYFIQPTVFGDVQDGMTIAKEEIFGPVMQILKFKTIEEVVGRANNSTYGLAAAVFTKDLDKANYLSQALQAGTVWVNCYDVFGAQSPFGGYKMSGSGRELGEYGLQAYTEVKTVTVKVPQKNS
< 4.00
